Assay overview: Half life in Sprague-Dawley rat at 5 mg/kg, po measured for 24 hrs by LC-MS/MS analysis
Assay type: ADME, organism-based
Cond: in vivo
Measured endpoint: half-life (h)

{"Smiles str": "CC1(C)Cn2nc(-c3ccc(F)cn3)c(-c3ccnc4[nH]ncc34)c2CO1", "Unit text": "h", "half-life": 1}

A. Cn1cc(-c2ccnc3[nH]ncc23)c(-c2ccc(F)cc2)n1
B. Cn1cc(-c2ccnc3[nH]ccc23)c(-c2ccc(F)cn2)n1
C. [2H]C([2H])([2H])C1(C([2H])([2H])[2H])Cn2nc(-c3ccc(F)cn3)c(-c3ccnc4[nH]ncc34)c2CO1
Arrange these molecules by their half-life, starting with the largest number. Respond with an ordered listing of the labels, as requested.
A, B, C
(A: 2 h, B: 1.3 h, C: 0.8 h)

###

Assay target: Citron Rho-interacting kinase (Homo sapiens) (UniProt O14578)
Sequence (O14578 whole entry): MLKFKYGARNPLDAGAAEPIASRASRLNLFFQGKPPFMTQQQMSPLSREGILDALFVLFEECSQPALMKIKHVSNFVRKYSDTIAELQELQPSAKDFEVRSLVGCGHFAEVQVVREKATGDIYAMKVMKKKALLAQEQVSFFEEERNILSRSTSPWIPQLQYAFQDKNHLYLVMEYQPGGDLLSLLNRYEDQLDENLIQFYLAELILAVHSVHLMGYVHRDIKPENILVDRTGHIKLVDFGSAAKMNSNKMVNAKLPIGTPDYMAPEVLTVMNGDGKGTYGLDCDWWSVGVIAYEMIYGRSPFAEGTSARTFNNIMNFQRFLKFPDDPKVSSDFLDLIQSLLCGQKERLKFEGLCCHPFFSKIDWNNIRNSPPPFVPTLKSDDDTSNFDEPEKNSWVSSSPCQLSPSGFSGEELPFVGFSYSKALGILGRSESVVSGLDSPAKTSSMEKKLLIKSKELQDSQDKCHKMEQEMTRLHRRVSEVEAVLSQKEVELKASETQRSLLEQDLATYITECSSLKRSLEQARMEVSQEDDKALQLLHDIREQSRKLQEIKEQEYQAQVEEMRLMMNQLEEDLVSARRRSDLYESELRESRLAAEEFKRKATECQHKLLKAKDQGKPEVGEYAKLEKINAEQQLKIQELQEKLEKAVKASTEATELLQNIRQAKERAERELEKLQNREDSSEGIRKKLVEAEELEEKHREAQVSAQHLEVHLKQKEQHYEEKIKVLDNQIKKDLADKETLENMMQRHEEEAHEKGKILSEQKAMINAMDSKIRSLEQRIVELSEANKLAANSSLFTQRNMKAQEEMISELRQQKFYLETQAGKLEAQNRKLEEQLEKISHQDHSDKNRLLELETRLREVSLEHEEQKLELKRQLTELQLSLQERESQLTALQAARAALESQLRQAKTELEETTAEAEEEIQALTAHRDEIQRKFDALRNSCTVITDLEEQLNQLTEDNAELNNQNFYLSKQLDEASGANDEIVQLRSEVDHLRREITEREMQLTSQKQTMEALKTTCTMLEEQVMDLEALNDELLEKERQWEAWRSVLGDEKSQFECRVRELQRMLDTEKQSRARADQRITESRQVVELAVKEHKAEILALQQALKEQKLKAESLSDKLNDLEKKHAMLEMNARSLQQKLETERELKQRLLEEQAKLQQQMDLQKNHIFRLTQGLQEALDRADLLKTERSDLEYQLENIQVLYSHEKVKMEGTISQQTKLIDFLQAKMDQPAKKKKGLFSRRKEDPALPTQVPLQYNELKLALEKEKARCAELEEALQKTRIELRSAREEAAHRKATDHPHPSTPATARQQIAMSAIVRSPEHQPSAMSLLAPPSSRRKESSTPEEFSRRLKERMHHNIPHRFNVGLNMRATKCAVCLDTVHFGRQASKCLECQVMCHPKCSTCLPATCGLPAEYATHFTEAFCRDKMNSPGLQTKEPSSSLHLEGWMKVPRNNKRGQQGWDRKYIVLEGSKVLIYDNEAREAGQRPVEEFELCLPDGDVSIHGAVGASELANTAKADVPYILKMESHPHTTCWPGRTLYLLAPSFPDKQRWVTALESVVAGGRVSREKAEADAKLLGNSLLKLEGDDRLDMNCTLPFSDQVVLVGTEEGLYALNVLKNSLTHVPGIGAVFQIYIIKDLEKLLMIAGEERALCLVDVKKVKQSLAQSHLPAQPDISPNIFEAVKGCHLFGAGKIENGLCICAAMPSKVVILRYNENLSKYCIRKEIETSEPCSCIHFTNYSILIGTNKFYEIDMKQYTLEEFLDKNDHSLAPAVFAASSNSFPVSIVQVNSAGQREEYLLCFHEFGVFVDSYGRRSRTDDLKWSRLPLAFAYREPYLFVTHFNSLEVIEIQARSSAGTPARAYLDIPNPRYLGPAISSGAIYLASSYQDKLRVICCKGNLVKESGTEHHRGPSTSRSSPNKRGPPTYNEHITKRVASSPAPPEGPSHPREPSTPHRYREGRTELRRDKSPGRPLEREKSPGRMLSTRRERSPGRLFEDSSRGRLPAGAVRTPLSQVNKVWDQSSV
Assay overview: Inhibition of CRIK (unknown origin) at 1 uM by radiometric assay relative to control
Measured endpoint: inhibition (%)

{"Smiles str": "CC1(C)Cn2nc(-c3ccc(F)cn3)c(-c3ccnc4[nH]ccc34)c2CO1", "Unit text": "%", "inhibition": 15}

1. Cc1cnc2[nH]ccc2c1-c1cn(C)nc1-c1ccc(F)cn1
2. Fc1ccc(-c2nn3c(c2-c2ccnc4[nH]ccc24)COCC3)nc1
3. Cn1cc(-c2c(C#N)cnc3[nH]ccc23)c(-c2ccc(F)cn2)n1
4. Cn1cc(-c2ccnc3[nH]c(C(F)(F)F)cc23)c(-c2ccc(F)cn2)n1
Order the records by inhibition, with each subsequent value no larger than the one before. I'd appreciate it if you listed the labels in the requested order.
4, 1, 3, 2
(4: 54%, 1: 14%, 3: 9%, 2: 5%)

###

Assay target: TRAF2 and NCK-interacting protein kinase (Homo sapiens)
Sequence (Q9UKE5 whole entry, looked up): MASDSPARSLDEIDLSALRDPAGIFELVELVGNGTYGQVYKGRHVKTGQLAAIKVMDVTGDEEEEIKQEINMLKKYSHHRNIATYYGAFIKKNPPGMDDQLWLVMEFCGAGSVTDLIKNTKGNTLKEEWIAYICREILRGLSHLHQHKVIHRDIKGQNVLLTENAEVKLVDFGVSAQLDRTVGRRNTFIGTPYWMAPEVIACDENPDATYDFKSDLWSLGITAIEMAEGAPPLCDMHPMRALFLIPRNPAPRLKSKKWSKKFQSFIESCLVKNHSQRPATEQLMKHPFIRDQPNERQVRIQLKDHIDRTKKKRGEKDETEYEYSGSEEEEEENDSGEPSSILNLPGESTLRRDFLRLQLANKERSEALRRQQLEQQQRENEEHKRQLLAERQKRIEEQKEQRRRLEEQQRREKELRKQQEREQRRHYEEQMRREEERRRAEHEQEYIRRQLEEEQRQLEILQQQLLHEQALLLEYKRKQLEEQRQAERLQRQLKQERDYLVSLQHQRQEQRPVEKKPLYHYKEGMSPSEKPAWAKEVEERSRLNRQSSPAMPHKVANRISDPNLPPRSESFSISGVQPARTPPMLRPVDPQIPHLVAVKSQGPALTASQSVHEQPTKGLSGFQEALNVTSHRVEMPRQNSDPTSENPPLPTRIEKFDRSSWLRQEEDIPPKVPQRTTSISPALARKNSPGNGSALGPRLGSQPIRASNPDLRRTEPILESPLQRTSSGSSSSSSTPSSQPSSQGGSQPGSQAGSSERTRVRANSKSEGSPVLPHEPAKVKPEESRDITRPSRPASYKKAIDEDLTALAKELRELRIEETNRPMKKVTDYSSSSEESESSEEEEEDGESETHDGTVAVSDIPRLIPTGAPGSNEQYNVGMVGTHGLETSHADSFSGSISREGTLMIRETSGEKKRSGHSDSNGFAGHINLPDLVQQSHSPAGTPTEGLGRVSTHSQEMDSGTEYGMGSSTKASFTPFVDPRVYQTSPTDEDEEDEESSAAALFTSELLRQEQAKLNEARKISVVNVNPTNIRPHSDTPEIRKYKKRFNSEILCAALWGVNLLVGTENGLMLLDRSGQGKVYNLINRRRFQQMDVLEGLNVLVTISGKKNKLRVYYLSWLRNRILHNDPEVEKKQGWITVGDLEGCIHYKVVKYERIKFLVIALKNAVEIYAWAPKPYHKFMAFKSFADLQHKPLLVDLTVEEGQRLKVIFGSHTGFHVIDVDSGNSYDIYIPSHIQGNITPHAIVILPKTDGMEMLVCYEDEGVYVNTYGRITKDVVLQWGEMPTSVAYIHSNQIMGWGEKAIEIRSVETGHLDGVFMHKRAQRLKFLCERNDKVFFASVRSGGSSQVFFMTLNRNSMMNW
Assay overview: Inhibition of TNIK (unknown origin) at 1 uM by radiometric assay relative to control
Measured endpoint: inhibition (%)

{"Smiles str": "Cn1cc(-c2ccnc3[nH]c(C(F)(F)F)cc23)c(-c2ccc(F)cn2)n1", "Recorded value": 85}
{"Smiles str": "Cc1cnc2[nH]ccc2c1-c1cn(C)nc1-c1ccc(F)cn1", "Recorded value": 54}
{"Smiles str": "Cn1cc(-c2cc(N)nc3[nH]ccc23)c(-c2ccc(F)cn2)n1", "Recorded value": 39}
{"Smiles str": "Cn1cc(-c2ccnc3[nH]ccc23)c(-c2ccc(F)cn2)n1", "Recorded value": 60}

P. Fc1ccc(-c2nn3c(c2-c2ccnc4[nH]ccc24)COCC3)nc1
Q. CC1(C)Cn2nc(-c3ccc(F)cn3)c(-c3ccnc4[nH]ccc34)c2CO1
Could you tell me which of P and Q has the lower inhibition reading? # reply format: chosen label
P
(P: 46%, Q: 84%)
